The measured values listed here are drawn from patent US11046753B2.

- assayComment: Lightning-Link fluorescein conjugation of goat anti-rabbit IgG in presence of additive, fluorescence assay
- experimentalContext: 50 mM additive
measurementName: interference in Lightning-Link fluorescein conjugation reaction

molecule	endpointResult
CN(C)CC(=O)O [N,N- Dimethylglycine, N,N-dimethylglycine]	little or no effect
C[N+](C)(C)CC(=O)[O-] [Glycine betaine, N,N,N-trimethylglycine]	little or no effect

###

- assayComment: Carbodiimide (EDC)-mediated conjugation of goat anti-rabbit IgG to carboxylated gold nanoparticles in presence of additive, read by lateral flow assay
- experimentalContext: additive 50 mM final, MES pH 5.0, EDC; lateral flow test line signal
measurementName: % of Signal
The answer consists of two parts: a number and, after it, its unit.

Q: Sample "O=C(O)[C@@H]1CCCN1" — what was its % of Signal?
Result: 94%

Q: Would you kindly share the measured % of Signal for O=C(O)c1c(O)cc(O)cc1O [2,4,6-Trihydroxy-benzoic Acid, 2,4,6-trihydroxybenzoic acid] ?
Result: 0%

Q: Given the entry "CC(C)(C)C(=O)O" , report its measured % of Signal.
Result: 53%

Q: Item "NC(CO)(CO)CO" has what recorded % of Signal?
Result: 19%

Q: Which % of Signal value is on record for "NCCC(=O)O" ?
Result: 92%

Q: Would you kindly share the measured % of Signal for CNCC(=O)O [N-Methylglycine (Sarcosine), N-methylglycine] ?
Result: 93%
